Each recorded value in this set is attributed to paper PMC9550238.

- Tested on: Aβ-GFP SH-SY5Y cells
- measurement_protocol: Aβ folding reporter GFP fluorescence
- Format: cell-based, Human
- reported_conditions: Homo sapiens, 144 h; Aβ-GFP SH-SY5Y cells, compounds 1.2–5 μM, Dox 6 days; read-out: Aβ aggregation inhibition EC50 (GFP fluorescence)
Entries whose EC50 is below 7 µM take criterion met; entries at or above 7 µM take criterion not met.

molecule	class_assignment
COc1cc(/C=C/C(=O)CC(=O)/C=C/c2ccc(O)c(OC)c2)ccc1O [Curcumin, curcumin, reference compound]	criterion met
O=C(c1ccccc1)c1cc2ccc(O)cc2oc1=O	criterion not met
COc1ccc2cc(C(=O)c3ccccc3)c(=O)oc2c1	criterion not met
CCOc1ccc2cc(C(=O)c3ccccc3)c(=O)oc2c1	criterion met
O=c1ccc2ccccc2o1 [Coumarin, coumarin, reference compound]	criterion not met
O=C(c1ccccc1)c1cc2c(O)cccc2oc1=O [LM-031, 3-benzoyl-5-hydroxychromen-2-one]	criterion met

###

- measurement_protocol: in vitro
- Assay type: in vitro ADME
- reported_conditions: PAMPA
measurement_type: recovery at 18 h, 1 µM (%)

molecule	measurement_type	experimental_value
CC(=O)Oc1ccc2cc(C(=O)c3ccccc3)c(=O)oc2c1 [LMDS-4]	recovery at 18 h, 1 µM	12.7

###

- measured_target: Aβ42 peptide (Homo sapiens)
- Construct: assessed by using Aβ42 peptide (AnaSpec, Fremont, CA, USA)
- Sequence (P05067 672-713 limits assumed): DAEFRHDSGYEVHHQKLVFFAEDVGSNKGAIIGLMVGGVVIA
- measurement_protocol: Thioflavin T Aβ aggregation inhibition assay
- reported_conditions: Aβ42, compounds 5–20 μM
pEC50: −log10 of the molar value.

molecule	measured_target	pEC50
O=C(c1ccccc1)c1cc2c(O)cccc2oc1=O [LM-031, 3-benzoyl-5-hydroxychromen-2-one]	Aβ42 peptide (Homo sapiens)	5.05
O=C(c1ccccc1)c1cc2ccc(O)cc2oc1=O [LMDS-2]	Aβ42 peptide (Homo sapiens)	4.74
O=c1ccc2ccccc2o1 [Coumarin, coumarin, reference compound]	Aβ42 peptide (Homo sapiens)	4.60
COc1ccc2cc(C(=O)c3ccccc3)c(=O)oc2c1 [LMDS-3]	Aβ42 peptide (Homo sapiens)	4.85

###

- measurement_protocol: in vitro
- Assay type: in vitro ADME
- reported_conditions: PAMPA
Response field label takes 1 when Papp at 18 h, 1 μM is strictly below 40 nm/s and 0 in all other cases.

compound	class_assignment
CN1C(C(=O)Nc2ccccn2)=C(O)c2ccccc2S1(=O)=O [Piroxicam, piroxicam, reference compound]	1
CC(NC(C)(C)C)C(=O)c1cccc(Cl)c1 (centres unmarked) [Bupropion, bupropion, reference compound]	0
O=C(c1ccccc1)c1cc2ccc(O)cc2oc1=O	1
COc1ccc2cc(C(=O)c3ccccc3)c(=O)oc2c1	0
CCOc1ccc2cc(C(=O)c3ccccc3)c(=O)oc2c1	0
